We begin with a simple list: items and their reported TGI.
Tested on: HS 578T breast
assay.info: NCI tumour cell line growth inhibition, 48 h

{"molecule": "C=C1C(=O)O[C@H]2C/C(C)=C/CC/C(C)=C/CC[C@@](C)(O)[C@@H](I)C[C@@H]12", "scale.unit": "µM", "modifier.sign": "=", "TGI": 21.5}
{"molecule": "Nc1nc2c(c3ncccc13)C(c1ccc(Cl)c(Cl)c1)Cc1ncccc1-2 (stereo not given)", "scale.unit": "µM", "modifier.sign": "=", "TGI": 19.2}
{"molecule": "O=Nc1c(-c2cccc([N+](=O)[O-])c2)nc2cnccn12", "scale.unit": "µM", "modifier.sign": ">", "TGI": 100}
{"molecule": "CCOC(=O)C(NC(=O)CC(C)C)(Nc1ccc(C(F)(F)F)cc1)C(F)(F)F (stereo not given)", "scale.unit": "µM", "modifier.sign": ">", "TGI": 100}
{"molecule": "C=C(C)C(=O)OC1CC2(C)OC2CC(OC(C)=O)/C(C)=C/C2OC(=O)C(=C)C21 (stereo not given)", "scale.unit": "µM", "modifier.sign": "=", "TGI": 30.6}
{"molecule": "Cc1[nH]c(C(=O)Nc2ccc(C(=O)N3CCNCC3)cc2OC(C)C)c(Cl)c1Cl", "scale.unit": "µM", "modifier.sign": "=", "TGI": 3.91}
{"molecule": "NS(=O)(=O)c1ccc(Nc2c3ccccc3nc3c(C(=O)NCCCN(CCO)CCO)cccc23)cc1", "scale.unit": "µM", "modifier.sign": "=", "TGI": 53.8}
{"molecule": "NS(=O)(=O)c1ccc(C2C3=C(CCCC3=O)OC3=C2C(=O)c2ccccc2C3=O)cc1 (stereo not given)", "scale.unit": "µM", "modifier.sign": "=", "TGI": 9.4}
{"molecule": "CCOC(=O)/C(C#N)=C/c1ccc(CO)o1", "scale.unit": "µM", "modifier.sign": ">", "TGI": 100}
{"molecule": "CC1CC[C@@]2(OC1)O[C@H]1C[C@H]3[C@@H]4CC[C@H]5C[C@@H](OC6OC(CO)C(OC7OC(CO)C(OC8OC(CO)C(O)C(OC9OC(C)C(OC%10OC(C)C(O)C(O)C%10O)C(O)C9O)C8OC8OCC(O)C(O)C8O)C(O)C7O)C(O)C6O)CC[C@]5(C)[C@H]4CC(=O)[C@]3(C)[C@H]1[C@@H]2C (stereo not given in full)", "scale.unit": "µM", "modifier.sign": "=", "TGI": 50.7}
{"molecule": "Nc1ccc(-c2nc3cc(F)ccc3s2)cc1I", "scale.unit": "µM", "modifier.sign": ">", "TGI": 75.1}
{"molecule": "CC(C)[C@H]1NC(=O)[C@H]2N=C(O[C@@H]2C)[C@@H]2CCCN2C(=O)[C@H](Cc2ccccc2)NC(=O)[C@@H]2CSC(=N2)[C@@H](Cc2ccccc2)NC(=O)[C@@H]2CSC1=N2", "scale.unit": "µM", "modifier.sign": ">", "TGI": 100}
{"molecule": "O=CN1N=C(c2ccc(Nc3ccnc4cc(Cl)ccc34)cc2)CC1c1ccccc1 (stereo not given)", "scale.unit": "µM", "modifier.sign": "=", "TGI": 71.1}
{"molecule": "COc1ccc(Nc2ncccc2/C=C/C(=O)c2cc(OC)c(OC)c(OC)c2)cc1", "scale.unit": "µM", "modifier.sign": "=", "TGI": 9.6}
{"molecule": "CC1=C(C(=O)Nc2ccc3[nH]ncc3c2)C(c2ccc(F)cc2)NC(=O)N1 (stereo not given)", "scale.unit": "µM", "modifier.sign": ">", "TGI": 25}
{"molecule": "COC(=O)c1ccccc1C#CCCCOS(C)(=O)=O", "scale.unit": "µM", "modifier.sign": ">", "TGI": 10}
{"molecule": "Cc1nccn1S(=O)(=O)c1ccc(Br)cc1Br", "scale.unit": "µM", "modifier.sign": ">", "TGI": 100}
{"molecule": "Cc1cn(CC2=NCCCN2)c(=O)[nH]c1=O", "scale.unit": "µM", "modifier.sign": ">", "TGI": 100}
{"molecule": "COc1ccc(C(=C(I)c2ccccc2)c2ccc(OC)cc2)cc1", "scale.unit": "µM", "modifier.sign": ">", "TGI": 100}
{"molecule": "Cc1cccc2nc3cccc(C(=O)NCCC[N+](C)(CCCNC(=O)c4cccc5nc6cccc(C)c6nc45)Cc4c([N+](=O)[O-])ncn4C)c3nc12", "scale.unit": "µM", "modifier.sign": ">", "TGI": 1100}
{"molecule": "Cc1cc2ccccc2n1CC(=O)N1CCCC1", "scale.unit": "µM", "modifier.sign": ">", "TGI": 100}
{"molecule": "O=C(Nc1nnc(-c2ccccc2)o1)C(SC(=S)N1CCOCC1)c1ccccc1 (stereo not given)", "scale.unit": "µM", "modifier.sign": ">", "TGI": 100}
{"molecule": "COc1cc2c(c(OC)c1OC)-c1ccc(NNC(=S)N(Cc3cccc(C[N+](Cc4cccc(CNC56CC7CC(CC(C7)C5)C6)c4)(Cc4cccc(CNC56CC7CC(CC(C7)C5)C6)c4)Cc4cccc(CN(C(=S)NNc5ccc6c(cc5=O)[C@@H](NC(C)=O)CCc5cc(OC)c(OC)c(OC)c5-6)C56CC7CC(CC(C7)C5)C6)c4)c3)C34CC5CC(CC(C5)C3)C4)c(=O)cc1[C@@H](NC(C)=O)CC2 (stereo not given in full)", "scale.unit": "µM", "modifier.sign": "=", "TGI": 6.76}
{"molecule": "O=c1[nH]c2cc3cccnc3c(Cl)c2nc1C(F)(F)F", "scale.unit": "µM", "modifier.sign": ">", "TGI": 100}
{"molecule": "COC(=O)/C=C\\C(C#N)(C#N)N=Cc1ccc(C)s1", "scale.unit": "µM", "modifier.sign": "=", "TGI": 43.6}
{"molecule": "CC1(C)CN(c2ccccc2)C(=O)C1OC(=O)[C@@]1(C)C[C@@H]2C=C[C@H]1C2 (stereo not given in full)", "scale.unit": "µM", "modifier.sign": "=", "TGI": 54.7}
{"molecule": "ON(CCc1ccncc1)Cc1ccccc1", "scale.unit": "µM", "modifier.sign": ">", "TGI": 100}
{"molecule": "Cc1ccc(C)c(COCCOCn2cc(Br)c(N)nc2=O)c1", "scale.unit": "µM", "modifier.sign": ">", "TGI": 100}
{"molecule": "COc1ccc(C(O)c2cc3c(N)c(C(=O)Nc4cccc(Cl)c4C)sc3nc2C)cc1 (stereo not given)", "scale.unit": "µM", "modifier.sign": "=", "TGI": 1.79}
{"molecule": "c1cc(C[S+]2CCCC2)ccc1C[S+]1CCCC1", "scale.unit": "µM", "modifier.sign": ">", "TGI": 100}
{"molecule": "Cn1c(-c2ccc[se]2)ccc1-c1ccc(CO)[se]1", "scale.unit": "µM", "modifier.sign": ">", "TGI": 100}
{"molecule": "CCON=C1C(C)(C)C(C)(C)C(C)(C)C1(C)C", "scale.unit": "µM", "modifier.sign": ">", "TGI": 100}
{"molecule": "O=C1c2ccccc2-c2nccc3cc(Cl)nc1c23", "scale.unit": "µM", "modifier.sign": "=", "TGI": 14.2}
{"molecule": "Cc1cc(Nc2ccc(N=Nc3ccc(O)c4ncccc34)cc2)nc(C)n1", "scale.unit": "µM", "modifier.sign": ">", "TGI": 59.4}
{"molecule": "O=C1CSC2=NCC3(NN12)c1ccccc1-c1ccccc13", "scale.unit": "µM", "modifier.sign": ">", "TGI": 10}
